src = patent US20220098305A1

- measured.on: T1, human ICOS (human, UniProt Q9Y6W8 21-199)
- T1 construct: The cell that carries it is named under assay; also called huICOS; CD278
- T1 sequence: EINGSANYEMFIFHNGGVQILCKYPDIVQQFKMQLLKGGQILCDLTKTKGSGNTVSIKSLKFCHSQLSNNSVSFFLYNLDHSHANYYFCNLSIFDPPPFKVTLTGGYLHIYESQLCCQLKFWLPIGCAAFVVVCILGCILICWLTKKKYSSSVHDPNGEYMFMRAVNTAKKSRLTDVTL
- experimental.details: flow cytometry, SR cells
pEC50: −log10 of the molar value.

{"columns": ["binder", "pEC50"],
 "data": [
  ["Molecule 20 (rbIgG of 1143) (antibody, V domains shown, Rabbit IgG format; also called ICOS (1143); clone 1143) VH: QSLEESGGDLVKPGASLTLTCKASGFDFSSAYDMCWVRQAPGKGLEWIGCVYYGDGITYYATWAKGRFTISKTSSTTVPLQMTSLTAADTATYFCARGAFLGSSYYLSLWGQGTLVTVSS VL: AIDMTQTPASVEAAVGGTVTINCQASENIYNWLAWYQQKPGQPPKLLIYDASKLASGVPSRFSASGSGTQFTLTISAVECADAATYYCQQAYTYGNIDNAFGGGTEVVVSG", 12.40],
  ["Molecule 14 (muIgG of 009) (antibody, V domains shown, Mouse IgG purified from hybridoma; also called ICOS (009); clone 009) VH: EVRLDETGGGVVQPGRPMELSCVASGFTFSDYWMNWVRQSPEKGLEWVAQIRNKPYNYETYYSDSVKGRFTISRDDSKSRVYLQMNNLRAEDMGIYYCTWPRLRSSDWHFDVWGAGTTVTVSS VL: AIQMTQSPSSLSASLGGEVTITCKASQDINKNIAWYQHKPGRGPRLLIWYTSTLQTGIPSRFSGSGSGRDYSFTISNLEPEDFATYYCLQFDNLYTFGSGTKLEIR", 11.85],
  ["Molecule 8 (rbIgG of 1167) (antibody, V domains shown, Rabbit IgG format, from transgenic rabbit; also called ICOS (1167); clone 1167) VH: EVRLLESGGGLVQPGGSLRLSCAASGFTFNTYAVHWVRQAPGKGLEWVSGIGGSGVRTYYADSVKGRLTISRDNSKNTLYLQMNSLRAEDTAIYFCAKDIYVADFTGYAFDIWGQGTMVTVSS VL: DIQMTQSPSSVSASVGDRVTITCRASQGINNFLAWYQQKPGKAPKLLIYDASSLQSGVPSRFAGSGSGTDFTLTISSLQPEDFATYYCQQYNFYPLTFGGGTMVEIKR", 11.95],
  ["Molecule 18 (rbIgG of 1138) (antibody, V domains shown, Rabbit IgG format; also called ICOS (1138); clone 1138) VH: QSLEESGGDLVKPGASLTLTCTASGFDLSSYYYMCWVRQAPGKGLEWIACIYADIYGGTTHYASWAKGRFTISKTSSTTVTLQMTSLTAADTATYFCAREDGSRYGGSGYYNLWGPGTLVTVSS VL: ALVMTQTPSSVSAAVGGTVTINCQASQNIYSNLAWYQQKPGQPPKLLIYAASYLTSGVSSRFKGSGAGTQFTLTISGVECADAATYYCQQGHTTDNIDNAFGGGTEVVVKG", 11.67]
]}
